Target: human recombinant ATX (Homo sapiens, UniProt Q13822)
Assay: Autotaxin (ATX) activity Quanta Red assay
Type: biochemical
Settings: read-out: Activity (ATX activity, Quanta Red assay; IC50)
Protocol: The reaction was stopped after 2 hours with a 20 μL addition of Quanta Red Stop solution (1:20 dilution in distilled water). The above-described mixture with DMSO alone was used as a positive control whereas that with DMSO alone without ATX was taken as a negative control. Fluorescence was determined in a BMG Labtech Pherastar plus plate reader ([…]). Data were analysed using Excel fit software. IC50 values were determined in duplicate.
pIC50: −log10 of the molar value.
value-kind: pIC50

compound: O=C(CCc1nc2cccnc2n1Cc1ccc(OC(F)(F)F)cc1)NC(CO)c1ccc(C(F)(F)F)cc1 (centres unmarked) [Example 23]
target-entity: human recombinant ATX (Homo sapiens, UniProt Q13822)
pIC50: 8.40
//
compound: CN(C)c1ccc(CNC(=O)CCc2nc3cccnc3n2Cc2ccc(F)c(F)c2)cc1 [Example 63]
target-entity: human recombinant ATX (Homo sapiens, UniProt Q13822)
pIC50: 6.86
//
compound: C[C@H](NC(=O)CSc1nc2cccnc2n1Cc1ccc(F)cc1)c1ccc(F)cc1 [Example 146]
target-entity: human recombinant ATX (Homo sapiens, UniProt Q13822)
pIC50: 8.52
//
compound: COc1ccc(CNC(=O)CCc2nc3cccnc3n2Cc2cccc(OC(F)(F)F)c2)cc1 [Example 98]
target-entity: human recombinant ATX (Homo sapiens, UniProt Q13822)
pIC50: 7.35
//
compound: O=C(CCc1nc2cccnc2n1Cc1ccc(F)c(F)c1)NCc1ccncc1 [Example 82]
target-entity: human recombinant ATX (Homo sapiens, UniProt Q13822)
pIC50: 6.01

(I) C[C@H](NC(=O)CCc1nc2cccnc2n1Cc1ccc(Br)cc1)c1ccc(Cl)cc1 [Example 21]
(II) Cc1cnc2c(c1)nc(CCC(=O)N[C@@H](C)c1ccc(N[C@H]3CCNC3)cc1)n2Cc1ccc(OC(F)(F)F)cc1 [Example 189]
Pick one, I or II : lowest reported pIC50. Answer with the label corresponding to your selection.
II

----------
Target: human recombinant ATX (Homo sapiens)
Assay: Autotaxin (ATX) activity Quanta Red assay
Format: biochemical
Settings: read-out: Activity (ATX activity, Quanta Red assay; IC50)
value-kind: IC50 (nM)

Solved entries (count: 5):
molecule: C[C@H](NC(=O)CCc1nc2cc(Br)cnc2n1Cc1ccc(OC(F)(F)F)cc1)c1ccc(Cl)cc1 [Example 61]
target-entity: human recombinant ATX (Homo sapiens)
output-unit: nM
IC50: 100

molecule: COc1ccc(Cn2c(CCC(=O)N[C@@H](C)c3ccc(Cl)cc3)nc3cccnc32)cc1F [Example 24]
target-entity: human recombinant ATX (Homo sapiens)
output-unit: nM
IC50: 4

molecule: COc1ccc(Cn2c(CCC(=O)NCc3ccc4c(ccn4C)c3)nc3cccnc32)cc1 [Example 105]
target-entity: human recombinant ATX (Homo sapiens)
output-unit: nM
IC50: 88

molecule: C[C@H](NC(=O)CCc1nc2cccnc2n1Cc1ccc(OC(F)(F)F)cc1)c1ccc(N2CCCNCC2)cc1 [Example 170]
target-entity: human recombinant ATX (Homo sapiens)
output-unit: nM
IC50: 2

molecule: O=C(CCc1nc2cccnc2n1Cc1ccc(F)c(F)c1)NCC1CCCCC1 [Example 71]
target-entity: human recombinant ATX (Homo sapiens)
output-unit: nM
IC50: 243

(A) CC(=O)N1CCC(CNC(=O)CCc2nc3cccnc3n2Cc2ccc(OC(F)(F)F)cc2)CC1 [Example 216]
(B) O=C(CCc1nc2cccnc2n1Cc1ccc(OC(F)(F)F)cc1)N[C@H](CO)Cc1ccc(O)cc1 [Example 205]
// max by IC50 over [ A , B ] Field: selected label. Fill in the label of the entry you choose.
A

(A) C[C@H](NC(=O)NCc1nc2cccnc2n1Cc1ccc(F)cc1)c1ccccc1 [Example 161]
(B) COc1ccc(CNC(=O)CCc2nc3cccnc3n2Cc2ccc(F)cc2)cc1 [Example 97]
Problem: Given the entries A and B , determine which has the lower reported IC50. Identify your pick by its label.
B
(B: 40 nM, A: 115 nM)

(a) O=C(CCc1nc2cccnc2n1Cc1ccc(OC(F)(F)F)cc1)NC(CO)c1ccc(F)cc1 (stereo not shown) [Example 15]
(b) O=C(CCc1nc2cccnc2n1Cc1ccc(OC(F)(F)F)cc1)N[C@@H](CO)c1ccccc1 [Example 7]
(c) O=C(CCc1nc2cccnc2n1Cc1ccc(OC(F)(F)F)cc1)N[C@@H](Cc1ccccc1)C(=O)O [Example 199]
Order the records so the highest IC50 appears first and the lowest last. # list labels per requested ordering
c, a, b
(c: 71 nM, a: 2 nM, b: 1 nM)

(A) O=C(CCc1nc2cccnc2n1Cc1ccccc1)NCC1CCCCC1 [Example 111]
(B) C[C@@H]1CN(c2ccc([C@H](C)NC(=O)CCc3nc4cccnc4n3Cc3ccc(OC(F)(F)F)cc3)cc2)CCN1 [Example 174]
(C) CC(C)(C)OC(=O)N1CCC[C@@H](CNC(=O)CCc2nc3cccnc3n2Cc2ccc(OC(F)(F)F)cc2)C1 [Example 54]
(D) C[C@H](NC(=O)CCc1nc2cccnc2n1Cc1ccc(OC(F)(F)F)cc1)c1ccc(N2CCN(C)CC2)cc1 [Example 167]
Rank the 4 molecules: largest IC50 first, smallest last. State the ranking by listing the labels in the requested order.
A, C, B, D

----------
Target: human recombinant ATX (Homo sapiens, UniProt Q13822)
Experiment: Autotaxin (ATX) activity Quanta Red assay
Assay type: biochemical
Details: read-out: Activity (ATX activity, Quanta Red assay; IC50)
pIC50: −log10 of the molar value.
value-kind: pIC50

(a) Cc1cnc2c(c1)nc(CCC(=O)N[C@@H](C)c1ccc(Cl)cc1)n2Cc1ccc(OC(F)(F)F)cc1
(b) Cc1cnc2c(c1)nc(CCC(=O)N[C@@H](C)c1ccc(Cl)cc1)n2Cc1ccc(F)cc1
Kindly compare a with b and tell me which has the lower pIC50 figure. Refer to your chosen item by its label in the answer.
b

----------
Molecular target: human recombinant ATX (Homo sapiens, UniProt Q13822)
Experiment: Autotaxin (ATX) activity Quanta Red assay
Type: biochemical
Conditions: read-out: Activity (ATX activity, Quanta Red assay; IC50)
pIC50: −log10 of the molar value.
value-kind: pIC50

Here's what some known entries look like.
compound: C[C@H](NC(=O)CCc1nc2cccnc2n1Cc1ccc(F)cc1)c1ccc(N2CCCC2)cc1
target-entity: human recombinant ATX (Homo sapiens, UniProt Q13822)
value: 8.22
//
compound: O=C(CCc1nc2cccnc2n1Cc1ccc(OC(F)(F)F)cc1)N[C@H]1CCCc2ccccc21
target-entity: human recombinant ATX (Homo sapiens, UniProt Q13822)
value: 8.05
//
compound: CC(Sc1nc2cccnc2n1Cc1ccc(OC(F)(F)F)cc1)C(=O)N[C@@H](CO)c1ccccc1 (some centres unmarked)
target-entity: human recombinant ATX (Homo sapiens, UniProt Q13822)
value: 7.96

(A) CC(NC(=O)CCc1nc2cccnc2n1Cc1ccc(OC(F)(F)F)cc1)c1ccncc1 (centres unmarked)
(B) O=C(CCc1nc2cccnc2n1Cc1ccc(OC(F)(F)F)cc1)NCC1CCCCC1
Smaller pIC50 value, A vs B ? Give the chosen item's label as your response.
B
(B: 7.96, A: 8.22)

----------
Target: human recombinant ATX (Homo sapiens)
Experiment: Autotaxin (ATX) activity Quanta Red assay
Type: biochemical
Settings: read-out: Activity (ATX activity, Quanta Red assay; IC50)
value-kind: IC50 (nM)

molecule: COc1ccc(Cn2c(CCC(=O)NCc3cccc(F)c3)nc3cccnc32)cc1 [Example 117]
IC50 (nM): 373

(1) COc1cccc([C@H](C)NC(=O)NCc2nc3cccnc3n2Cc2ccc(F)cc2)c1 [Example 165]
(2) O=C(CCc1nc2cccnc2n1Cc1ccc(F)cc1)N[C@@H](CO)c1ccccc1 [Example 28]
(3) CC(C)(C)OC(=O)N1CCC(CNC(=O)CCc2nc3cccnc3n2Cc2ccc(OC(F)(F)F)cc2)CC1 [Example 51]
(4) C[C@@H]1CN(c2ccc([C@H](C)NC(=O)CCc3nc4cccnc4n3Cc3ccc(OC(F)(F)F)cc3)cc2)C[C@H](C)N1 [Example 171]
List items by IC50 in falling order. Reply format: the labels, ordered as requested.
1, 3, 2, 4
(1: 514 nM, 3: 22 nM, 2: 5 nM, 4: 2 nM)

----------
Molecular target: human recombinant ATX (Homo sapiens, UniProt Q13822)
Experiment: Autotaxin (ATX) activity Quanta Red assay
Type: biochemical
Settings: Table 2: additional compounds tested for ATX activity (Quanta Red Assay); read-out: Activity
value-kind: IC50 (nM)

mol-smiles: COc1ccc(Cn2c(CCC(=O)NCCc3ccc(SC)cc3)nc3cccnc32)cc1
value: 154
//
mol-smiles: COc1ccc(Cn2c(CCC(=O)NCc3ccc(F)cc3)nc3cccnc32)cc1
value: 89

(P) COc1ccc(Cn2c(CCC(=O)NCc3ccc(Cl)cc3)nc3cccnc32)cc1
(Q) O=C(CCc1nc2cccnc2n1Cc1cccs1)NCc1ccccc1
Parameter check: reported IC50 is higher for which label, P or Q ? The response must carry the label of the picked entry.
Q

Data origin, for the record: patent US11453666B2
